Data provenance is paper PMC12436594.

# system.name: PvLDH (lactate dehydrogenase) (Plasmodium vivax, UniProt Q4PRK9 1-316)
# assay.summary: flow cytometry (Ni-NTA beads)
# assay.context: protein: recombinant; tags: His6; chain copies: 4
property.measured: Kd

According to the records, this binder N15 unmodified (ssDNA) DNA: CACTCACGTCAGTGACATGCAGGTCCTCTCGCCCCCAGTGACTTGCGTGGTCAGAAATTTCGCACCAC displays Kd of ~208 nM
